Origin of measurements: PubChem BioAssay (NCI)

system: HCC-2998 colon; experiment: NCI tumour cell line growth inhibition, 48 h; in the data active = GI50 below about 0.43 µM; inactive = the rest
Your answer must be one of the following: 1.0 (active), 0.0 (inactive)

compound	assigned.label
CC1(C)N=C(N)N=C(N)N1c1cccc(CC(=O)Nc2ccccc2)c1	0.0

What was the test verdict on `CN(C)c1ccc(-c2cc(-c3cccc(NS(C)(=O)=O)c3)nc(N)c2C#N)cc1` ?
1.0

Recorded test call requested for CCCN1CCCC(c2ccc(Nc3nc(Nc4cc(F)ccc4C(N)=O)c4cc[nH]c4n3)c(OC)c2)C1 (stereo not drawn)
0.0

Check the results log: what was the call for `N#CSc1c[nH]c2cccc(/C=C/C(=O)/C=C(O)/C=C/c3cccc4[nH]cc(SC#N)c34)c12` ?
0.0

Would you mind telling me which call this test gave `CC1(C)CCC(c2ccc(Cl)cc2)=C(CN2CCN(c3ccc(C(=O)NS(=O)(=O)c4ccc(N[C@H](CCN5CCOCC5)CSc5ccccc5)c(S(=O)(=O)C(F)(F)F)c4)cc3)CC2)C1` ?
1.0

State the result this test recorded for CC(=O)Nc1ccc(S(=O)(=O)N2C(=O)CCC2C(=O)Nc2ccccc2)cc1 (stereo not drawn) .
0.0

Each compound tested received a call. Report the one for `Fc1cnccc1-c1nc2ccc3[nH]ncc3c2c2c1CCCC2` .
0.0

I'd appreciate the recorded outcome for `C=C(CN1CCc2ccccc2C1)c1ccc(C(=O)Nc2cccc(N)c2)cc1` from this test.
0.0

###

tested on: RXF 393 renal; assay: NCI tumour cell line growth inhibition, 48 h
endpoint.name: GI50

Sample records with GI50:
In [3]: df
Out[3]:
                                   molecule  test_value
0  C=C(CN1CCc2ccccc2C1)c1ccc(C(=O)Nc2cccc(N)c2)cc1     19.1 µM
1  COc1ccc(-c2cc(-c3ccc(Cl)cc3)c(C#N)c(=O)n2CCCCCC(=O)Nc2ccccc2N)cc1     1.77 µM
2  C=CN(C(=O)N1CCN(c2cc3c(cc2F)c(=O)c(C(=O)O)cn3C2CC2)CC1)c1nc(-c2ccc(C)cc2)cs1        4 µM
3  Cc1ccccc1C1N=C2Oc3ccccc3C=C2C(=O)N1 (stereo not given)    0.488 µM

Assign GI50 to the following record: `CC(=O)[O-].O=C([CH-]C(=O)c1ccccc1)c1ccccc1.O=C([CH-]C(=O)c1ccccc1)c1ccccc1.[Dy+3]`
6.84 µM

###

test system: 786-0 renal; assay: NCI tumour cell line growth inhibition, 48 h; in the data active = GI50 below about 0.43 µM; inactive = the rest
Select the matching outcome among YES (active), NO (inactive)

>>> print(df.to_string())
                                   compound  assigned_label
0      Nc1nc(-c2ccccn2)c(-c2ccc3ncccc3n2)s1              NO
1  COc1ccc2c(c1)OCC1c3cc(OC)ccc3OC21 (centres undefined)              NO
2  CC1(C)N=C(N)N=C(N)N1c1cccc(CC(=O)Nc2ccccc2)c1              NO
3  COc1cnc2c(c1)C(=O)c1c-2n(CCCN2CCNCC2)c(=O)c2cc(F)ccc12             YES
4  CC(=O)Nc1ccc(/C=C/C(=O)c2sc(-n3nc(-c4ccccc4)cc3-c3ccccc3)nc2C)cc1              NO

Entry `C=C1C(=O)O[C@H]2[C@H]1CC/C(COC(=O)NCc1ccc(Cn3c(=O)sn(CCCI)c3=O)cc1)=C\CC[C@@]1(C)O[C@@H]21` : call = ?
NO

Test call for this compound, please: Nc1nc(N)c2nc(CNc3ccc(C(=O)NC(CCC(=O)O)C(=O)O)cc3)cnc2n1 (centres undefined)
YES

Could you please tell me the result logged for `NC1=Nc2cc(OCCCCN3Cc4ccccc4C3)c(OCC3CC3)cc2C12CCCC2` in this assay?
NO

Dear all, I need the recorded test outcome for Cc1nn(-c2ccccc2)c2c1[C@@H](C)[C@H]1CC3(CC4(C)C[C@@H]3C1(C)c1c(C)nn(-c3ccccc3)c1N4C)N2C (some centres undefined) , thank you.
NO

###

tested on: OVCAR-8 ovarian; assay: NCI tumour cell line growth inhibition, 48 h; in the data active = GI50 below about 0.43 µM; inactive = the rest
Thanks in advance; please answer with one of these: active, inactive

Observe how each entry below is paired with its result.
In [3]: df
Out[3]:
                                   molecule  assigned_label
0  OC1(c2ccccc2)c2ccccc2N(c2ccccc2)c2ccc(Cl)cc21 (stereo not given)          active
1  CN(C)c1ccc(-c2cc(-c3cccc(NS(C)(=O)=O)c3)nc(N)c2C#N)cc1          active
2  Nc1ncnc2c1ncn2C1SC(CO)C(O)C1O (stereo not given)        inactive
3  C=C(CN1CCc2ccccc2C1)c1ccc(C(=O)Nc2cccc(N)c2)cc1        inactive
4   O=c1[nH]c(-c2ccncc2)nc2sc3c(c12)CCCCCC3        inactive

Which outcome was entered for the molecule `COc1cccc(-c2cc(-c3ccc(Nc4nc(Nc5ccc(Cl)cc5)nc(Nc5ccc(Cl)cc5)n4)cc3)nc(N)c2C#N)c1` in this test?
inactive

Test call for this molecule, please: `CCn1nc(C#Cc2c(C)ccc3c(Nc4ccc(Cl)cc4)nccc23)c2c(N)ncnc21`
inactive

For this molecule, state the assay outcome: Cc1ccccc1C1N=C2Oc3ccccc3C=C2C(=O)N1 (stereo not given)
inactive

Field: outcome | Entry: `CCOc1ccc(-c2nc3ccc(-c4nc5ccc(N6CCN(C)CC6)cc5[nH]4)cc3[nH]2)cc1OCC`
inactive

For this molecule, state the assay outcome: `CCN(CC)c1ccc(C=C2C(=O)NC(=S)NC2=O)cc1`
inactive

###

tested on: HCC-2998 colon; assay: NCI tumour cell line growth inhibition, 48 h
endpoint.name: TGI (µM)
Numbers only, in µM.

Known TGI results, listed for orientation:
>>> df
                                smiles_text     system_name  test_value
0           CN(C)CCC(C#N)(c1ccccc1)c1ccccc1  HCC-2998 colon        34.1
1  CC(C)=CCN1c2ccccc2[C@@]2(CC=C(C)C)CCN(C)[C@@H]12  HCC-2998 colon        29.5
2    CCc1cccc(CC)c1NC1=CC(=O)C(=O)c2ccccc21  HCC-2998 colon        28.8

Name the recorded TGI of the compound listed here: `N#CSc1c[nH]c2cccc(/C=C/C(=O)/C=C(O)/C=C/c3cccc4[nH]cc(SC#N)c34)c12`
4.56

###

test system: MOLT-4 leukemia; assay: NCI tumour cell line growth inhibition, 48 h
endpoint.name: TGI

                                   molecule  test_value
0             CNC(=S)N/N=C/CSC/C=N/NC(=S)NC    > 100 µM
1  O=[N+]([O-])c1ccc(-c2ccc([C@H]3CC(c4cc(F)c(Cl)cc4Cl)=NN3)o2)cc1       41 µM

For the 7 molecules below, give their TGI values.
1. CC(=O)Nc1ccc(/C=C/C(=O)c2sc(-n3nc(-c4ccccc4)cc3-c3ccccc3)nc2C)cc1
2. C=CC(C)(C)[C@@]12CC3C(=O)N[C@@H](Cc4ccccc4)C(=O)N3[C@@H]1N(C(C)=O)c1ccccc12 (stereo not given in full)
3. CCC[CH2][Sn]1([CH2]CCC)[O]C(=O)c2cccnc2[S]1
4. COc1ccc(Cc2c3cc(OC)c(OC)cc3cc[n+]2C)cc1
5. COc1cc(Nc2nc(NS(=O)(=O)c3cc(C)c(Cl)cc3S)n[nH]2)cc(OC)c1OC
6. CCCCP1(=O)C=CC(Cl)=C(C)C1 (stereo not given)
7. Nc1nc(-c2ccccn2)c(-c2ccc3ncccc3n2)s1

["> 100 µM", "71.7 µM", "7.71 µM", "> 100 µM", "> 100 µM", "> 100 µM", "> 25 µM"]

In one line, give reported TGI of the entry `CC(C)c1c(C(=O)Nc2ccccc2)c(-c2ccccc2)c(-c2ccc(F)cc2)n1CC[C@@H](O)C[C@@H](O)CC(=O)O` .
99.2 µM

###

Please provide measured TGI for the entries that follow.
tested on: DU-145 prostate; test: NCI tumour cell line growth inhibition, 48 h

Worked cases, answers included:
                                   molecule  test_value
0  C(#C[C@@]12CCC[C@@H]1NCO2)c1ccc2c(c1)OCO2    > 100 µM
1  CCCCCCCCCCCCNC(=O)N[C@H](C(=O)N[C@H]1/C=C/OCCNC(=O)/C=C/[C@H](C(C)C)NC1=O)C(C)C    > 100 µM

For every item in the list below, what is its measured TGI?
1. c1ccc2sc(C3(N4CCCCCC4)CCCCC3)cc2c1
2. CC(C)C1CC(CO)(CNc2nc(N)nc(Cl)c2C=O)C1 (stereo not drawn)
3. C=CN(C(=O)N1CCN(c2cc3c(cc2F)c(=O)c(C(=O)O)cn3C2CC2)CC1)c1nc(-c2ccc(C)cc2)cs1
4. C/C(=C\COP(=O)(O)CP(=O)(O)O)CC/C=C(\C)CNc1ccccc1
5. CC[C@@]12CC(C(=O)OC)=C3Nc4ccccc4[C@@]34CCN(C[C@H]3O[C@H]31)[C@@H]24
6. CC(=O)Nc1ccc2c3c(cc(O)c2c1)N(C(=O)CCCCCCC(=O)Nc1ccc2c4c(cc(O)c2c1)N(C(=O)OC(C)(C)C)CC4CCl)CC3CCl (stereo not drawn)
7. FC(F)(F)c1ccc(-c2cnc(-c3nn[nH]n3)nc2NC2CCCCCC2)cc1
8. CN(C)CCCn1c2c(c3ccc(N4CCNCC4)cc3c1=O)C(=O)c1ccccc1-2

> 100 µM
29.1 µM
> 100 µM
> 100 µM
> 100 µM
0.0587 µM
> 10 µM
1.65 µM

Please look at the items below and tell me TGI for each one, in order.
1. Cc1cc(C)c(CNC(=O)c2cc(Cl)c3c(c2C)O[C@@](C)(C2CCC(N(C)C)CC2)O3)c(=O)[nH]1 (stereo partly drawn)
2. CC(C(=O)NCNC(=O)c1ccccc1)C(=O)NCc1ccccc1 (stereo not drawn)
3. CSc1ccc(/C=C2\N=C(c3ccccc3)N(NC(=O)c3c(Cl)c(Cl)c(Cl)c(Cl)c3-c3nc4ccccc4[nH]3)C2=O)cc1

> 100 µM
> 100 µM
> 100 µM

Provide each entry's TGI from the list below.
1. CCO/C=N\C1=C(C#N)SC2=N/C(=C\c3ccco3)C(=O)N21
2. OC1(c2ccccc2)c2ccccc2N(c2ccccc2)c2ccc(Cl)cc21 (stereo not drawn)
3. COc1cccc(O)c1-c1cc(=O)c2c(O)c(OC)c(OC)c(OC)c2o1

1: > 100 µM; 2: 1.39 µM; 3: 58.9 µM

For every listed record, write down its TGI.
1. Nc1nc(N)c2nc(CNc3ccc(C(=O)NC(CCC(=O)O)C(=O)O)cc3)cnc2n1 (stereo not drawn)
2. CC(=O)OC(C(=O)NNC(=O)OC(C)(C)C)c1ccccc1 (stereo not drawn)
3. CCc1ccc2cc3c(ccc4ccccc43)c3c2c1CC3
4. COC(=O)c1nc2n(n1)-c1ccccc1C(=O)N(Cc1ccccc1)C2
5. CC(=O)O[C@@H]1[C@H]2O[C@H]2[C@H]2O[C@@]2(COC(=O)c2ccccc2)[C@H]1OC(C)=O
6. O=[N+]([O-])C1=Cc2c(O)ccc(O)c2C2c3ccccc3NC12 (stereo not drawn)
7. COC(=O)C#CC1(O)C=CC(=O)C=C1

["> 100 µM", "> 100 µM", "> 100 µM", "> 100 µM", "> 100 µM", "> 54 µM", "16.7 µM"]

Take each entry in turn and give its TGI.
1. O=C1C(CN2CCCC2)CCC1CN1CCCC1 (stereo not drawn)
2. COc1ccc2c(c1)OCC1c3cc(OC)ccc3OC21 (stereo not drawn)
3. O=C(c1ccco1)c1c(C(F)(F)F)n([O-])c2cc(Cl)c(Cl)cc2[n+]1=O
4. CCCCCCCC(=O)N1C2CC3CCC2(CS1(=O)=O)C3(C)C (stereo not drawn)
5. Cc1ccccc1C1N=C2Oc3ccccc3C=C2C(=O)N1 (stereo not drawn)
6. O=C(/C=C/c1c[nH]c2ccccc12)c1ccccc1O
7. NC1=Nc2cc(OCCCCN3Cc4ccccc4C3)c(OCC3CC3)cc2C12CCCC2
8. Fc1cnccc1-c1nc2ccc3[nH]ncc3c2c2c1CCCC2

["> 100 µM", "> 100 µM", "2.03 µM", "> 100 µM", "> 100 µM", "23.9 µM", "11.4 µM", "43.3 µM"]

For every item in the list below, what is its measured TGI?
1. Cc1nnc(NS(=O)(=O)c2ccc(N=Nc3c(O)c(C(=O)O)cc4ccccc34)cc2)s1
2. Cc1nn(-c2ccccc2)c2c1[C@@H](C)[C@H]1CC3(CC4(C)C[C@@H]3C1(C)c1c(C)nn(-c3ccccc3)c1N4C)N2C (stereo partly drawn)

1. > 100 µM
2. > 100 µM
